Here, each record is paired with measured IC50 data.
# Tested System: menin protein (Homo sapiens (Human), UniProt O00255)
# Sequence (O00255 whole entry): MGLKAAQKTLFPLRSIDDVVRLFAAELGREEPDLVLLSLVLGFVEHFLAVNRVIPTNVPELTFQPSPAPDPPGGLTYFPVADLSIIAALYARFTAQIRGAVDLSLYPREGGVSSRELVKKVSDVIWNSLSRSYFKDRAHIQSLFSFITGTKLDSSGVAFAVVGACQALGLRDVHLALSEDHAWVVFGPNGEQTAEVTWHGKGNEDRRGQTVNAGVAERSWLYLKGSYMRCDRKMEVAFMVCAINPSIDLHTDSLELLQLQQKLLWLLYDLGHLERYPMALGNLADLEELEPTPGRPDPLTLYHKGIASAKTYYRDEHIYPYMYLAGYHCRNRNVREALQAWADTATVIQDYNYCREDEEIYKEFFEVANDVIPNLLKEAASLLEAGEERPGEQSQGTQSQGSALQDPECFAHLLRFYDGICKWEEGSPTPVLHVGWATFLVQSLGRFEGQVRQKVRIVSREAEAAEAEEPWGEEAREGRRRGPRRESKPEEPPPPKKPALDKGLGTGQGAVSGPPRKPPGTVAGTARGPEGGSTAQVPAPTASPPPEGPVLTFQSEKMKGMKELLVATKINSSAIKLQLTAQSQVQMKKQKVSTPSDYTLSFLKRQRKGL
# Assay: biochemical
# Type: binding
# Test Settings: FP competitive binding; menin protein 4 nM, FAM-MM2 probe 2 nM; read-out: Menin Binding Affinity IC50
The reply should be a number in µM, with the unit left off.

> print(dat)
                                   compound  measurement.units  measurement
1  CNC(=O)O[C@H]1CCC[C@@H]1C(C#N)(c1ccccc1)C1CCN(CC2CN(c3ccc(S(=O)(=O)C4CC4)cc3)C2)CC1 (mixture of isomers)                 µM        0.014
2  CCC1CCCC1C(C#N)(c1ccccc1)C1CCN(CC2CN(c3ccc(S(=O)(=O)c4ccncc4)cc3)C2)CC1 (stereo not drawn)                 µM         10.2

Attention now shifts to the item below.
Input line: Item CNC(=O)N[C@H]1CCC[C@@H]1C1(C2CCN(CC3CN(c4ccc(S(=O)(=O)C5CC5)cc4)C3)CC2)CN(C(C)C)Cc2ccccc21 (mixture of isomers) has what recorded IC50?
Output line: 0.012
